# PROTOCOL: Maximum (saturation) solubility in 10 mM citric buffer, HPLC assay
# Type: physicochemical
# ASSAY CONDITIONS: 10 mM citric buffer, aqueous buffer, thermodynamic from solid, pH range of about 4 to 5.5; read-out: water solubility
MEASURED QUANTITY: solubility at 48 h

- CCCN(CCc1cccs1)[C@H]1CCc2c(O)cccc2C1.O=P(O)(O)O [rotigotine.H3PO4, rotigotine dihydrogen phosphate]: 34 to 83 mM

====

# PROTOCOL: Maximum (saturation) solubility in 10 mM citric buffer, HPLC assay
# Assay type: physicochemical
# ASSAY CONDITIONS: 10 mM citric buffer, pH 4, aqueous buffer, thermodynamic from solid, pH 4, 68 mM NaCl, n = 2-3; read-out: Solubility
MEASURED QUANTITY: solubility at 48 h (mM)

* CCCN(CCc1cccs1)[C@H]1CCc2c(O)cccc2C1.O=P(O)(O)O [rotigotine.H3PO4, rotigotine dihydrogen phosphate] | 80.1
